tested on: NCI/ADR-RES ovarian; assay: NCI-60 one-dose screen, 48 h (100 = growth as untreated, 0 = no growth, -100 = all killed); settings: 10 µM unless noted
Compounds without any hit were thinned out: in the full panel of roughly 83,000, 20% have a hit. Active and inactive are the calls of the source. Rule for the calls: active = growth percent below 10; inactive = the rest.
Assign growth to each entry below.

Input line: GET /values?readout=growth&item= Cc1ccc(CCC(=O)Nc2ncc(Cc3cc(Cl)ccc3Cl)s2)o1
Output line: -4.35% (active)

Input line: GET /values?readout=growth&item= O=c1[nH]c2ccccc2n1C1CCN(CCOc2ccccc2)CC1
Output line: 94.1% (inactive)

Input line: GET /values?readout=growth&item= Nc1cc2c3c(cccc3c1)C(=O)N(CCN1CCCC1)C2=O
Output line: 35.1% (inactive)

Input line: GET /values?readout=growth&item= COc1nc(N(C)O)nc(N(C)O)n1
Output line: 14.9% (inactive)

Input line: GET /values?readout=growth&item= COc1nc2c(c(=O)n1C)CN(c1ccccc1)C(=O)CN2C
Output line: 54.2% [100 µM] (inactive)

Input line: GET /values?readout=growth&item= CCN(CC)c1ccc(C(=O)c2ccc(N(CC)CC)cc2)cc1
Output line: -27.8% (active)

Input line: GET /values?readout=growth&item= O=c1ccn2nc3ccccc3c2[nH]1
Output line: 60.1% (inactive)

Input line: GET /values?readout=growth&item= CCCCNC(=O)Oc1ccc2c(=O)c3sc4c(=O)c5ccccc5c(=O)c4c3c(=O)c2c1
Output line: -19.3% (active)

Input line: GET /values?readout=growth&item= COC(=O)[C@]12CC[C@@H](C)[C@H](C)[C@@H]1C1=CC[C@@H]3[C@@]4(C)C(C=O)=C[C@@](C)(COC(C)=O)[C@@H]4[C@H](O)C[C@@]3(C)[C@]1(C)CC2
Output line: 2.88% (active)

Input line: GET /values?readout=growth&item= C[C@H]1[C@H]2[C@H]3CC[C@@H]4[C@@]5(C)C/C(=C/c6cccnc6)C(=O)C(C)(C)[C@@H]5CC[C@@]4(C)[C@]3(C)CC[C@]23CO[C@]1(C)[C@@H](C(=O)/C=C\c1cccnc1)C3
Output line: 2.97% (active)

Input line: GET /values?readout=growth&item= CC(=O)N1C(=S)NC(=O)C1Cn1c(-c2ccccc2)nc2ccccc21 (stereo unspecified)
Output line: 102% (inactive)

Input line: GET /values?readout=growth&item= N=C1C(c2nc(-c3ccc(Br)cc3)cs2)=C(O)CN1Cc1cccnc1
Output line: 70.1% (inactive)

Input line: GET /values?readout=growth&item= Cc1cccc(NC(=O)N/C(N)=N/c2nc(C)c(C)s2)c1
Output line: 25.3% (inactive)

Input line: GET /values?readout=growth&item= COCN1CCC2N(COC)CCC3N(COC)CCC1N23 (stereo unspecified)
Output line: 108% (inactive)

Input line: GET /values?readout=growth&item= COc1cc(N2C(=O)c3nccnc3C2=O)cc(OC)c1OC
Output line: 104% (inactive)

Input line: GET /values?readout=growth&item= C=CCn1c(C)nc2cc(Nc3nc(Cl)nc4ccccc34)ccc21
Output line: 90.3% (inactive)

Input line: GET /values?readout=growth&item= S=C(Cc1ccc2c(c1)CCCC2)N1CCOCC1
Output line: 105% (inactive)

Input line: GET /values?readout=growth&item= O=c1c2cc(F)ccc2sc2c(NCCN3CCCCC3)nc3ccccc3c12
Output line: 67.1% (inactive)

Input line: GET /values?readout=growth&item= CC(=O)N1N=C(c2ccc(Nc3nc(Nc4ccc(F)cc4)nc(Nc4ccc(F)cc4)n3)cc2)CC1c1cccc([N+](=O)[O-])c1 (stereo unspecified)
Output line: 67.2% (inactive)

Input line: GET /values?readout=growth&item= Cc1ccc(NCCN(C)C)c2c(=O)c3ccccc3sc12
Output line: 38.6% (inactive)

Input line: GET /values?readout=growth&item= O=C(/C=C/c1cccc(O)c1)c1cccc(-n2cc(-c3ccc4ccccc4c3)[nH]c2=O)c1
Output line: -39.3% (active)

The values you see were collected from PubChem BioAssay (NCI).
